- SYSTEM_NAME: pteridine reductase 1 (TbPTR1) (Trypanosoma brucei, UniProt O76290)
- Construct: N-terminal hexahistidine-tagged protein
- Sequence (O76290 1-268): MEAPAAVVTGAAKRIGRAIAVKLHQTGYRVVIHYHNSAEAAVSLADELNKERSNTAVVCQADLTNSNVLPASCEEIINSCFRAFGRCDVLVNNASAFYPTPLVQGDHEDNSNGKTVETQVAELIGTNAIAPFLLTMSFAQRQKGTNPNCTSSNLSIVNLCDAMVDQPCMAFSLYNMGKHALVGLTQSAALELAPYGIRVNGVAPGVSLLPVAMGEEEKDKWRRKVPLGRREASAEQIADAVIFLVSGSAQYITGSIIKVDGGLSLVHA
- ASSAY_REMARKS: cocrystal structure of ternary complex; cyt c-coupled enzyme inhibition assay
TEST_READOUT: pKi
Just so you know, pKi here is -log10 of the concentration in molar units; reply with that number alone.

For the molecule shown here, "Cc1ccc(-c2ccc3nc(N)nc(N)c3c2)cc1" , give the reported pKi.
8.52
